Catalogue of Percent Effect values
- assay-summary: In vitro enzyme assay to detect hydrolysis of chlorophenol red-beta-D-[…] directly proportional to the number of Toxoplasma stably expressing beta-galactosidase
- Type: functional, organism-based, Toxoplasma gondii
- Parameters: scale not given: in the data most compounds retested in dose-response had high values
- measurement-context: 10 µM
Screen size: about 85,000 compounds; about 440 (0.52%) showed an effect of 50% or more. This is one part of a sample in which strong results are shown more often than they occur.
# number only, unit % dropped from output

c1csc(N2CCN(c3ncnc4sccc34)CC2)n1: 15.87
CS(=O)(=O)N1CCOCC2(CCN(c3ccccn3)C2)C1.O=C(O)C(F)(F)F (centres undefined): 93.48
CCCOc1ccc2ccccc2c1CN1CC[C@@]2(O)CCNC[C@H]2C1: 3.549

Would you kindly share the measured Percent Effect for CCOc1ccc2ccccc2c1CNCC1CCS(=O)(=O)C1.Cl (centres undefined) ? -7.781

Now consider `COc1cc2cc(C(=O)NCCC(=O)O)n(C)c2c(OC)c1OC` and answer again. 74.68

Now consider `COCCNc1cc(C)nn2cnnc12` and answer again. 70.24

Now consider O=C(O)C(F)(F)F.O=S(=O)(C1CC1)N1CCOCC2(CCN(c3ccccn3)C2)C1 (centres undefined) and answer again. -7.77

Now consider CC(C(=O)Nc1nccs1)N1CCc2nn(C)c(=O)cc2C1 (centres undefined) and answer again. 7.43

Now consider `CCc1ccc(CN2CCCn3c(nc(Cn4ccnc4)cc3=O)C2)o1.O=C(O)C(F)(F)F.O=C(O)C(F)(F)F` and answer again. 1.534

Now consider `Cc1cc(C)n(-c2nc(NCCCO)c3c4c(sc3n2)CCCC4)n1` and answer again. 81.16

Now consider `Cc1ccc(C)c(-c2[nH]c3ccccc3c2C(=O)O)c1` and answer again. 7.079

Now consider NCC(c1ccccc1)N1CCc2sccc2C1 (centres undefined) and answer again. -0.2514

Now consider `COc1cc2cc(C(=O)N[C@@H](C)C(=O)O)n(C)c2c(OC)c1OC` and answer again. -3.586

Now consider `CC(C)COC1CCN(S(=O)(=O)Cc2cccc(F)c2)CC1` and answer again. 8.24

Now consider `CCOCCCNc1nc2c(s1)c(C)nn2C` and answer again. -0.8738

Now consider `Cc1cc(C)n(-c2cncc(NCCNC(=O)C3CCCC3)n2)n1` and answer again. -17.81

Now consider `C=C/C=c1\c(=C/C)oc2c(NCc3ccccc3)nc(CC)nc12` and answer again. 39.81

Now consider `CCCn1nc2c(cc1=O)CN(c1ncnc3sccc13)CC2` and answer again. 8.636

Now consider CC(C)c1ccc(C(CN)N2CCc3sccc3C2)cc1 (centres undefined) and answer again. 87.38

Now consider `COc1cc(-c2cnnc(NCCCOC(C)C)n2)cc(OC)c1OC` and answer again. 4.137

Now consider CCOc1ccccc1CNCC1CCN(CC(C)O)CC1 (centres undefined) and answer again. -9.723

Now consider `C=C/C=c1\c(=C/C)oc2c(NCc3ccccc3)nc(C)nc12` and answer again. 54.55

Now consider `CCOc1ccc2ccccc2c1CNCC1CCNCC1.Cl.Cl` and answer again. 68.87

Now consider `COc1ccc(C)cc1-c1[nH]c2ccccc2c1C(=O)O` and answer again. 55.01

Recorded values, source ChEMBL document CHEMBL3988442.
